Hi there, I'd appreciate the recorded melting point for every entry that follows.

Some solved cases for reference:
MOLECULE: CC(=O)c1ccc2cc(N3C4CCC3CC4)ccc2c1
REPORTED_RESULT: 118 to 120 °C
--
MOLECULE: CNc1ccc2cc(C(C)=O)ccc2c1
REPORTED_RESULT: 182 °C
--
MOLECULE: CC(=O)c1ccc2cc(NC(C)C)ccc2c1
REPORTED_RESULT: 112 to 114 °C
--
MOLECULE: CC(=O)c1ccc2cc(NC3CCC(O)CC3)ccc2c1 (stereo not drawn)
REPORTED_RESULT: 186 to 188 °C
--
MOLECULE: CC(=O)c1ccc2cc(N3CCOCC3)ccc2c1
REPORTED_RESULT: 149 to 151 °C

Ask | Could you share which melting point value was measured for CC(=O)c1ccc2cc(N(C)C3CCC(O)CC3)ccc2c1 (stereo not drawn) ?
Reply | 192 to 194 °C
